Source: patent US9513294B2

# PROTOCOL_DETAILS: Absorbance and fluorescence emission spectra (SpectraMax M2)
# Format: physicochemical
# ASSAY_CONTEXT: MKCA compound library; absorbance maximum
PROPERTY: λmax Absorp. (nm)

CCCC(C)c1cn(-c2ccc3n2[B-](F)(F)[N+]2=C(NCc4cc(F)cc(F)c4)C=CC2=C3c2ccc(NC(=O)CCl)cc2)nn1 (stereo not drawn) = 467
CCOc1ccccc1CNC1=[N+]2C(=C(c3ccc(NC(=O)CCl)cc3)c3ccc(-n4cc(CC(C)C)nn4)n3[B-]2(F)F)C=C1 = 465
CC1CN(C2=[N+]3C(=C(c4ccc(NC(=O)CCl)cc4)c4ccc(-n5cc(CN(C)Cc6ccccc6)nn5)n4[B-]3(F)F)C=C2)CC(C)O1 (stereo not drawn) = 466
CCCc1cn(-c2ccc3n2[B-](F)(F)[N+]2=C(NCc4cc(OC)ccc4OC)C=CC2=C3c2ccc(NC(=O)CCl)cc2)nn1 = 465
CCCC(C)c1cn(-c2ccc3n2[B-](F)(F)[N+]2=C(NCc4ccccc4OCC)C=CC2=C3c2ccc(NC(=O)CCl)cc2)nn1 (stereo not drawn) = 466
CCOc1ccccc1CNC1=[N+]2C(=C(c3ccc(NC(=O)CCl)cc3)c3ccc(-n4cc(C5CCCC5)nn4)n3[B-]2(F)F)C=C1 = 464

====

# PROTOCOL_DETAILS: Absorbance and fluorescence emission spectra (SpectraMax M2)
# Format: physicochemical
# ASSAY_CONTEXT: BDCAC library, Table 3
PROPERTY: λmax Absorp. (nm)

CC(=O)Nc1ccc(C2=C3C=CC(N4CCCCC4)=[N+]3[B-](F)(F)n3c2ccc3-n2cc(-c3ccc(OC(F)(F)F)cc3)nn2)cc1 = 463
CC(=O)Nc1ccc(C2=C3C=CC(N4CCCCC4)=[N+]3[B-](F)(F)n3c2ccc3-n2cc(C3CCCCC3)nn2)cc1 = 467
CC(=O)Nc1ccc(C2=C3C=CC(N4CCCCC4)=[N+]3[B-](F)(F)n3c2ccc3-n2cc(CCc3ccccc3)nn2)cc1 = 467
CC(=O)Nc1ccc(C2=C3C=CC(N4CCCCC4)=[N+]3[B-](F)(F)n3c2ccc3-n2cc(-c3ccc(C(C)(C)C)cc3)nn2)cc1 = 465
CCCCCCc1cn(-c2ccc3n2[B-](F)(F)[N+]2=C(N4CCCCC4)C=CC2=C3c2ccc(NC(C)=O)cc2)nn1 = 467
CC(=O)Nc1ccc(C2=C3C=CC(N4CCCCC4)=[N+]3[B-](F)(F)n3c2ccc3-n2cc(CC(C)C)nn2)cc1 = 467

====

# PROTOCOL_DETAILS: Quantum yield measurements versus Acridine Yellow in EtOH
# Assay type: physicochemical
# ASSAY_CONTEXT: MKAC compound library; quantum yield
PROPERTY: φ (%)

# example entries with known answers
CC(=O)Nc1ccc(C2=C3C=CC(N4CCCC4)=[N+]3[B-](F)(F)n3c2ccc3-n2cc(CO)nn2)cc1 [MKAC215-70] = 1.11
CC(=O)Nc1ccc(C2=C3C=CC(N4CC(C)OC(C)C4)=[N+]3[B-](F)(F)n3c2ccc3-n2cc(C3CC3)nn2)cc1 (stereo not drawn) [MKAC20-4] = 3.64

a. CCCC(C)c1cn(-c2ccc3n2[B-](F)(F)[N+]2=C(NCc4ccccc4C)C=CC2=C3c2ccc(NC(C)=O)cc2)nn1 (stereo not drawn) [MKA101-3]
b. CC(=O)Nc1ccc(C2=C3C=CC(N(C)Cc4ccccc4)=[N+]3[B-](F)(F)n3c2ccc3-n2cc(C3CCCC3)nn2)cc1 [MKAC195-5]
c. CCCC(C)c1cn(-c2ccc3n2[B-](F)(F)[N+]2=C(N(C)Cc4ccccc4)C=CC2=C3c2ccc(NC(C)=O)cc2)nn1 (racemic) [MKAC195-3]
Challenge: Please order the records by their reported φ (%), lowest number first. Would you mind listing the labels in the order requested?
Response given: b, c, a
(b: 4.18%, c: 6.53%, a: 21.57%)

====

# PROTOCOL_DETAILS: Quantum yield measurements versus Acridine Yellow in EtOH
# Assay type: physicochemical
# ASSAY_CONTEXT: MKCA compound library; quantum yield
PROPERTY: φ (%)

# example entries with known answers
CCCCCC(O)c1cn(-c2ccc3n2[B-](F)(F)[N+]2=C(N4CCCC4)C=CC2=C3c2ccc(NC(=O)CCl)cc2)nn1 (stereo not shown) [MKCA215-69] = 3.42
CCOc1ccccc1CNC1=[N+]2C(=C(c3ccc(NC(=O)CCl)cc3)c3ccc(-n4cc(C5CCCC5)nn4)n3[B-]2(F)F)C=C1 [MKCA103-5] = 33.46
CCCc1cn(-c2ccc3n2[B-](F)(F)[N+]2=C(N4CC(C)OC(C)C4)C=CC2=C3c2ccc(NC(=O)CCl)cc2)nn1 (stereo not shown) [MKCA20-48] = 4.88
O=C(CCl)Nc1ccc(C2=C3C=CC(NCc4cc(F)cc(F)c4)=[N+]3[B-](F)(F)n3c2ccc3-n2cc(C3CCCC3)nn2)cc1 [MKCA412-5] = 41.21
CC(C)Cc1cn(-c2ccc3n2[B-](F)(F)[N+]2=C(NCc4cc(F)cc(F)c4)C=CC2=C3c2ccc(NC(=O)CCl)cc2)nn1 [MKCA412-43] = 37.83

1. CN(Cc1ccccc1)C1=[N+]2C(=C(c3ccc(NC(=O)CCl)cc3)c3ccc(-n4cc(CCc5ccccc5)nn4)n3[B-]2(F)F)C=C1 [MKCA195-19]
2. CCCC(C)c1cn(-c2ccc3n2[B-](F)(F)[N+]2=C(N4CCc5ccccc5C4)C=CC2=C3c2ccc(NC(=O)CCl)cc2)nn1 (stereo not shown) [MKCA66-3]
3. CCOc1ccccc1CNC1=[N+]2C(=C(c3ccc(NC(=O)CCl)cc3)c3ccc(-n4cc(CO)nn4)n3[B-]2(F)F)C=C1 [MKCA103-70]
Challenge: Please order the records by their reported φ (%), lowest number first. Would you mind listing the labels in the order requested?
Response given: 2, 1, 3

I. O=C(CCl)Nc1ccc(C2=C3C=CC(N4CCCC4)=[N+]3[B-](F)(F)n3c2ccc3-n2cc(CC3CCCCC3)nn2)cc1 [MKCA215-8]
II. CCCc1cn(-c2ccc3n2[B-](F)(F)[N+]2=C(NCc4cc(OC)ccc4OC)C=CC2=C3c2ccc(NC(=O)CCl)cc2)nn1 [MKCA181-48]
Challenge: I'm curious, which of these has a smaller φ (%) number: I or II ? State your choice using its label.
Response given: I
(I: 2.66%, II: 20.00%)

====

# PROTOCOL_DETAILS: Absorbance and fluorescence emission spectra (SpectraMax M2)
# Assay type: physicochemical
# ASSAY_CONTEXT: BDCCA library, Table 4
PROPERTY: λmax Emission (nm)

CCCCCCc1cn(-c2ccc3n2[B-](F)(F)[N+]2=C(N4CCCCC4)C=CC2=C3c2ccc(NC(=O)CCl)cc2)nn1 = 560
O=C(CCl)Nc1ccc(C2=C3C=CC(N4CCCCC4)=[N+]3[B-](F)(F)n3c2ccc3-n2cc(COc3ccccc3)nn2)cc1 = 584
Cc1ccc(-c2cn(-c3ccc4n3[B-](F)(F)[N+]3=C(N5CCCCC5)C=CC3=C4c3ccc(NC(=O)CCl)cc3)nn2)cc1 = 558
O=C(CCl)Nc1ccc(C2=C3C=CC(N4CCCCC4)=[N+]3[B-](F)(F)n3c2ccc3-n2cc(CCc3ccccc3)nn2)cc1 = 578
O=C(CCl)Nc1ccc(C2=C3C=CC(N4CCCCC4)=[N+]3[B-](F)(F)n3c2ccc3-n2cc(-c3ccc(OC(F)(F)F)cc3)nn2)cc1 = 537
O=C(CCl)Nc1ccc(C2=C3C=CC(N4CCCCC4)=[N+]3[B-](F)(F)n3c2ccc3-n2cc(C3CC3)nn2)cc1 = 577
COc1ccc2cc(-c3cn(-c4ccc5n4[B-](F)(F)[N+]4=C(N6CCCCC6)C=CC4=C5c4ccc(NC(=O)CCl)cc4)nn3)ccc2c1 = 586
O=C(CCl)Nc1ccc(C2=C3C=CC(N4CCCCC4)=[N+]3[B-](F)(F)n3c2ccc3-n2cc(-c3ccc(-c4ccccc4)cc3)nn2)cc1 = 575
O=C(CCl)Nc1ccc(C2=C3C=CC(N4CCCCC4)=[N+]3[B-](F)(F)n3c2ccc3-n2cc(CO)nn2)cc1 = 584
CCCC(C)c1cn(-c2ccc3n2[B-](F)(F)[N+]2=C(N4CCCCC4)C=CC2=C3c2ccc(NC(=O)CCl)cc2)nn1 (racemic) = 587
CCCc1cn(-c2ccc3n2[B-](F)(F)[N+]2=C(N4CCCCC4)C=CC2=C3c2ccc(NC(=O)CCl)cc2)nn1 = 569
CN(Cc1ccccc1)Cc1cn(-c2ccc3n2[B-](F)(F)[N+]2=C(N4CCCCC4)C=CC2=C3c2ccc(NC(=O)CCl)cc2)nn1 = 587
CC(C)CCc1cn(-c2ccc3n2[B-](F)(F)[N+]2=C(N4CCCCC4)C=CC2=C3c2ccc(NC(=O)CCl)cc2)nn1 = 584
CCCCCc1ccc(-c2cn(-c3ccc4n3[B-](F)(F)[N+]3=C(N5CCCCC5)C=CC3=C4c3ccc(NC(=O)CCl)cc3)nn2)cc1 = 548
O=C(CCl)Nc1ccc(C2=C3C=CC(N4CCCCC4)=[N+]3[B-](F)(F)n3c2ccc3-n2cc(CC3CCCCC3)nn2)cc1 = 589
CCCCCCCCc1cn(-c2ccc3n2[B-](F)(F)[N+]2=C(N4CCCCC4)C=CC2=C3c2ccc(NC(=O)CCl)cc2)nn1 = 582
CN(C)c1ccc(-c2cn(-c3ccc4n3[B-](F)(F)[N+]3=C(N5CCCCC5)C=CC3=C4c3ccc(NC(=O)CCl)cc3)nn2)cc1 = 627
CC(C)Cc1cn(-c2ccc3n2[B-](F)(F)[N+]2=C(N4CCCCC4)C=CC2=C3c2ccc(NC(=O)CCl)cc2)nn1 = 583
CCCCCCCc1cn(-c2ccc3n2[B-](F)(F)[N+]2=C(N4CCCCC4)C=CC2=C3c2ccc(NC(=O)CCl)cc2)nn1 = 568
CCCCCC(O)c1cn(-c2ccc3n2[B-](F)(F)[N+]2=C(N4CCCCC4)C=CC2=C3c2ccc(NC(=O)CCl)cc2)nn1 (racemic) = 587
O=C(CCl)Nc1ccc(C2=C3C=CC(N4CCCCC4)=[N+]3[B-](F)(F)n3c2ccc3-n2cc(C3(O)CCCC3)nn2)cc1 = 590
O=C(CCl)Nc1ccc(C2=C3C=CC(N4CCCCC4)=[N+]3[B-](F)(F)n3c2ccc3-n2cc(C3CCCC3)nn2)cc1 = 588
O=C(CCl)Nc1ccc(C2=C3C=CC(N4CCCCC4)=[N+]3[B-](F)(F)n3c2ccc3-n2cc(C3=CCCCC3)nn2)cc1 = 565
CCc1ccc(-c2cn(-c3ccc4n3[B-](F)(F)[N+]3=C(N5CCCCC5)C=CC3=C4c3ccc(NC(=O)CCl)cc3)nn2)cc1 = 568
Cc1cccc(-c2cn(-c3ccc4n3[B-](F)(F)[N+]3=C(N5CCCCC5)C=CC3=C4c3ccc(NC(=O)CCl)cc3)nn2)c1 = 555
O=C(CCl)Nc1ccc(C2=C3C=CC(N4CCCCC4)=[N+]3[B-](F)(F)n3c2ccc3-n2cc(-c3cccc(F)c3)nn2)cc1 = 568
